Hello, the source for this data is paper PMC5538626, in case you need it.

B1: PLEKHM1‐LIR WT peptide (EDEWVNVQY), biotinylated [modified: biotin; biotin] [not stated] / 6xHis‐tagged LC3C [human] (parent complex)
chain 1: EDEWVNVQY
chain 2: MPPPQKIPSVRPFKQRKSLAIRQEEVAGIRAKFPNKIPVVVERYPRETFLPPLDKTKFLVPQELTMTQFLSIIRSRMVLRATEAFYLLVNNKSLVSMSATMAEIYRDYKDEDGFVYMTYASQETFG

Variants of: B1
Experiment: peptide array (biotinylated LIR peptide, 6xHis-mATG8, absorbance); n = 3; read off a plot
Please provide measured percent of parent for the entries that follow.

// known answers, use as guide
chain 1 W4F ... ~50 % Mutant LIR/WT
chain 1 V7I ... ~110 % Mutant LIR/WT
chain 1 V7L ... ~85 % Mutant LIR/WT
chain 1 W4A, chain 1 V7A ... ~5 % Mutant LIR/WT

Task: Which percent of parent is reported for this variant? chain 1 W4Y
Output: ~25 % Mutant LIR/WT
